experimentNotes: NCI Yeast Anticancer Drug Screen. Data for the bub3 strain (AID 167)
measurementConditions: S. cerevisiae bub3 mutant strain, at 50.0 µM, active compounds read high
About 79,000 compounds went through this panel and 15% of them were active in at least one assay; those are over-represented in the sample as a whole.
Readings of growth inhibition for the listed molecules
quantityKind: growth inhibition (%)

>  <molecule>
O=C(c1ccc(Br)cc1)C1C(c2ccccc2)N1C1CCCCC1 (stereo unspecified)

>  <observedValue>
95

$$$$
>  <molecule>
O=[N+]([O-])c1ccc(SC2CCCCCCC2Cl)c([N+](=O)[O-])c1 (stereo unspecified)

>  <observedValue>
20.5

$$$$
>  <molecule>
CCCN1CN(c2ccccc2)C2(CCN(CCCC(=O)c3ccc(F)cc3)CC2)C1=O

>  <observedValue>
38.9

$$$$
>  <molecule>
CC12CCC(O)CC1=CCC1C2CCC2(C)C(NC(=O)C3CCCN3C(=O)CN(CCCl)CCCl)CCC12 (stereo unspecified)

>  <observedValue>
64.8

$$$$
>  <molecule>
COc1c(NC(=O)CC(C)=O)[c]([Hg][O]C(C)=O)c(OC)c(Cl)[c]1[Hg][O]C(C)=O

>  <observedValue>
93.3

$$$$
>  <molecule>
O=[N+]([O-])[O][Tl]([c]1ccccc1)[c]1ccccc1

>  <observedValue>
51.8

$$$$
